Listed next: entries and their corresponding viability, T/C.
- System: 786-0 complex spheroids with HUVEC/MSC, growth % test/control
- Experiment Notes: Anticancer human tumor 786-0 cell line growth inhibition [AhR];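 note: compound exposure lasted seven days before the read-out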
- Condition Info: second compound 10 µM; first compound 0.316 µM; hits give low values
Property: viability, T/C (%)

>>> numeric_readout("COc1cc(Nc2ncc3c(n2)-c2ccc(Cl)cc2C(c2c(F)cccc2OC)=NC3)ccc1C(=O)O + CC(CO)NC(=O)c1cc(-c2ccc(Cl)cc2)nn(-c2cnn(C)c2)c1=O")
101
>>> numeric_readout("COc1cccc2c1C(=O)c1c(O)c3c(c(O)c1C2=O)CC(O)(C(=O)CO)CC3OC1CC(N)C(O)C(C)O1 (stereo unspecified) + CC(CO)NC(=O)c1cc(-c2ccc(Cl)cc2)nn(-c2cnn(C)c2)c1=O")
11.2
>>> numeric_readout("COc1cc(Nc2ncc3c(n2)-c2ccc(Cl)cc2C(c2c(F)cccc2OC)=NC3)ccc1C(=O)O + Cc1ccccc1N=Nc1ccc(NC(=O)c2ccnn2C)c(C)c1")
106
>>> numeric_readout("O=C(c1cc(Cc2n[nH]c(=O)c3ccccc23)ccc1F)N1CCN(C(=O)C2CC2)CC1 + CC(CO)NC(=O)c1cc(-c2ccc(Cl)cc2)nn(-c2cnn(C)c2)c1=O")
108
>>> numeric_readout("CC1COCCN1c1cc(C2(S(C)(=N)=O)CC2)nc(-c2ccnc3[nH]ccc23)n1 (stereo unspecified) + CC(CO)NC(=O)c1cc(-c2ccc(Cl)cc2)nn(-c2cnn(C)c2)c1=O")
115
>>> numeric_readout("COc1cc(C2c3cc4c(cc3C(OC3OC5COC(C)OC5C(O)C3O)C3COC(=O)C23)OCO4)cc(OC)c1O (stereo unspecified) + Cc1cncc(-c2nc(NCCc3c[nH]c4ccccc34)c3ncn(C(C)C)c3n2)c1")
1.24
